- System: UACC-257
- measurement-description: NCI tumour cell line growth inhibition, 48 h
Activity calls are given as the source filed them. Rule as the data show it: active = GI50 up to about 1.1 µM and inactive = higher.
Answer with one of the outcomes active, inactive

Use the examples below as a reference point.
{"molecule": "COc1c(-c2ccc(F)cc2)oc2c(CC(=O)O)cccc2c1=O", "target-or-test-system": "UACC-257", "label": "inactive"}
{"molecule": "CCOC(=O)/C(=C/c1ccc(OC)cc1)N(CC)CC", "target-or-test-system": "UACC-257", "label": "inactive"}
{"molecule": "COC(=O)CSSCc1ccc([N+](=O)[O-])cc1", "target-or-test-system": "UACC-257", "label": "inactive"}

Called result for c1ccc(C2=NCCN2)c(C2=NCCN2)c1 inactive

Called result for O=C1C=Cc2c(I)sc(I)c21 inactive

Called result for Oc1ccc(Cc2cc(Cl)cc(Cl)c2O)cc1Cl inactive

Called result for CCOC(=O)c1nc2ccc(C(F)(F)F)cc2nc1Oc1cc(OC)c(OC)c(OC)c1 inactive

Called result for COC(=O)[C@]1(CCC(C)=O)C(=O)C=CN([C@H](C)c2ccccc2)[C@@H]1Cc1ccc(OC)c(OCc2ccccc2)c1I inactive

Called result for COc1ccc2[nH]c(C(=O)N3CC(CCl)c4c3cc(N)c3ccccc43)cc2c1 (stereo not drawn) active
